Values compiled from patent US20250215104A1.

# TESTED TARGET: T1, cynomolgus soluble urokinase plasminogen activator receptor (suPAR) (cynomolgus, UniProt Q9GK78 23-303, limits assumed)
# T1 construct: Column head says only 'cynomologus'; also called cynomolgus suPAR; cynomolgus uPAR
# T1 sequence (Q9GK78 23-303 limits assumed): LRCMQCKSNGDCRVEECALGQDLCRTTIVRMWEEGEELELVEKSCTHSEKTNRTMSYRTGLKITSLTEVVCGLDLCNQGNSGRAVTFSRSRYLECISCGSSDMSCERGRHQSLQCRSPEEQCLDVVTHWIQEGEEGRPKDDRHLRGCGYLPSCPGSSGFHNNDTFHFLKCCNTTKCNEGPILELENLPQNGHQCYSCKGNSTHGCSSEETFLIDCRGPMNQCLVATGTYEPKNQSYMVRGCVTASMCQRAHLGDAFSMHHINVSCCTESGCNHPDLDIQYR
# EXPERIMENT SUMMARY: BLI (Octet) off-rate screen of scFv clones
Assign 1 (yes) whenever koff does not fall below 0.0003 s⁻¹; assign 0 (no) whenever it does.

suPAR_DB05_A11 (scFv, V domains shown, Screened as scFv) VH: QVQLVQSGAEVKKPGASVKVSCKASGYTFTGYYMHWVRQAPGQGLEWMGWIDPNSGGTNYAQKFQGRVTMTRDTSTSTVYMELSSLRSEDTAVYYCARGYDVDWFVYWGQGTLVTVSS VL: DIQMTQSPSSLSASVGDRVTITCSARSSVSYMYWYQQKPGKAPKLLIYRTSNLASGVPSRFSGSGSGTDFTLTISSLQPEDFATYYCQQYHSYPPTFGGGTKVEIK; 1 (yes)
suPAR_DB05_D05 (scFv, V domains shown, Screened as scFv) VH: QVQLVQSGAEVKKPGASVKVSCKASGYTFTNYYMHWVRQAPGQGLEWMGWIDHSNGSTIYDQKFQGRVTMTRDTSTSTVYMELSSLRSEDTAVYYCARGYDVDWFVYWGQGTLVTVSS VL: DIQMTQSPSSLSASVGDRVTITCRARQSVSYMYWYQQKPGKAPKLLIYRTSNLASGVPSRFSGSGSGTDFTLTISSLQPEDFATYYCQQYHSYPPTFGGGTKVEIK; 1 (yes)
suPAR_DB05_B04 (scFv, V domains shown, Screened as scFv) VH: QVQLVQSGAEVKKPGASVKVSCKASGYTFTTYYMHWVRQAPGQGLEWMGWIDPSNGNTIYDQKFQGRVTMTRDTSTSTVYMELSSLRSEDTAVYYCARGYDVDWFVYWGQGTLVTVSS VL: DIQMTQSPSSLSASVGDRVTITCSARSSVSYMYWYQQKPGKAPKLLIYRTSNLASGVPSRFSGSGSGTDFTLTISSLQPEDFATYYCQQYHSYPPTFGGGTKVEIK; 1 (yes)
suPAR_DB04_H10 (scFv, V domains shown, Screened as scFv) VH: QVQLVQSGAEVKKPGASVKVSCKASGYTFTSYYMHWVRQAPGQGLEWMGWISPDSGGTNYAQKFQGRVTMTRDTSTSTVYMELSSLRSEDTAVYYCARGYDVDWFVYWGQGTLVTVSS VL: DIQMTQSPSSLSASVGDRVTITCRARSSVSYMYWYQQKPGKAPKLLIYRTSNLASGVPSRFSGSGSGTDFTLTISSLQPEDFATYYCQQYHSYPPTFGGGTKVEIK; 1 (yes)
suPAR_DB05_D02 (scFv, V domains shown, Screened as scFv) VH: QVQLVQSGAEVKKPGASVKVSCKASGYTITGNYMHWVRQAPGQGLEWMGWIDHENGSTIYDQKFQGRVTMTRDTSTSTVYMELSSLRSEDTAVYYCARGYDVDWFVYWGQGTLVTVSS VL: DIQMTQSPSSLSASVGDRVTITCSARQSISYMYWYQQKPGKAPKLLIYRTSNLASGVPSRFSGSGSGTDFTLTISSLQPEDFATYYCQQYHSYPPTFGGGTKVEIK; 1 (yes)
suPAR_DB05_B08 (scFv, V domains shown, Screened as scFv) VH: QVQLVQSGAEVKKPGASVKVSCKASGNAFSGHYVHWVRQAPGQGLEWMGWIDHENGNTIYAQKFQGRVTMTRDTSTSTVYMELSSLRSEDTAVYYCARGYDVDWFVYWGQGTLVTVSS VL: DIQMTQSPSSLSASVGDRVTITCSARQSVSYMYWYQQKPGKAPKLLIYRTSNLASGVPSRFSGSGSGTDFTLTISSLQPEDFATYYCQQYHSYPPTFGGGTKVEIK; 0 (no)
suPAR_DB05_C07 (scFv, V domains shown, Screened as scFv) VH: QVQLVQSGAEVKKPGASVKVSCKASGYTFTSHYVHWVRQAPGQGLEWMGWIDHEGGSTSYDQKFQGRVTMTRDTSTSTVYMELSSLRSEDTAVYYCARGYDVDWFVYWGQGTLVTVSS VL: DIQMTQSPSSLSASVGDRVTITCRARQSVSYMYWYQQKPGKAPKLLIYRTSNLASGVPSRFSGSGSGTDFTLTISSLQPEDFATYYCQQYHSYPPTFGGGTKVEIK; 0 (no)
suPAR_DB05_D01 (scFv, V domains shown, Screened as scFv) VH: QVQLVQSGAEVKKPGASVKVSCKASGHTSTNYYMHWVRQAPGQGLEWMGWIDHEGGNTSYDQKFQGRVTMTRDTSTSTVYMELSSLRSEDTAVYYCARGYDVDWFVYWGQGTLVTVSS VL: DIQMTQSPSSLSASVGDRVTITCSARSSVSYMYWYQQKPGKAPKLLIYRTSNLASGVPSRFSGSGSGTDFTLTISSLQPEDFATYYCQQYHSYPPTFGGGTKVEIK; 1 (yes)
suPAR_DB05_E03 (scFv, V domains shown, Screened as scFv) VH: QVQLVQSGAEVKKPGASVKVSCKASGHTLNSYYIHWVRQAPGQGLEWMGWIDPSGGNTIYDQKFQGRVTMTRDTSTSTVYMELSSLRSEDTAVYYCARGYDVDWFVYWGQGTLVTVSS VL: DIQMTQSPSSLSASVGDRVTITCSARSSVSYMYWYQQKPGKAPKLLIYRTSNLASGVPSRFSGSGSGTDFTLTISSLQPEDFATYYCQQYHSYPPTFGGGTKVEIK; 0 (no)
suPAR_DB05_B03 (scFv, V domains shown, Screened as scFv) VH: QVQLVQSGAEVKKPGASVKVSCKASGYTFTSYYIHWVRQAPGQGLEWIGWMDPNSGSAAYAQKFQGRVTMTRDTSTSTVYMELSSLRSEDTAVYYCARGYDVDWFVYWGQGTLVTVSS VL: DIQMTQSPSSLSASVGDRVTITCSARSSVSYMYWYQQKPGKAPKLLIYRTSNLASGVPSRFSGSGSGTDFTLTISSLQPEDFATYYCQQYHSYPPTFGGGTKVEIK; 1 (yes)
